Test details: Half life in Balb/c nude mouse at 5 mg/kg, ip
Type: ADME, organism-based
Applied conditions: in vivo
Measured attribute: half-life (h)
// return numeric value only (unit: h, not printed)

Query :: For O=C(NO)c1cccc2c1CN(c1nc3ccccc3[nH]1)C2 , write its half-life.
Result :: 10.2

----------
Test details: Kinetic solubility of the compound at pH 7.4
Type: physicochemical
Applied conditions: buffer, read-out: Kinetic_solubility
Rule: solubility kinetic under 30 µM gives no (0), otherwise yes (1).

Query :: Check this compound for solubility kinetic at or above 30 µM: CC1(C)c2cccc(C(=O)NO)c2CN1c1nc2ncccc2o1
Result :: yes (1)

Query :: Check this compound for solubility kinetic at or above 30 µM: CC1(C)c2cccc(C(=O)NO)c2CN1c1nc2ccc(C(F)(F)F)cc2[nH]1
Result :: yes (1)

Query :: Check this compound for solubility kinetic at or above 30 µM: CC1(C)c2cccc(C(=O)NO)c2CN1c1ccc(C(F)(F)F)nc1
Result :: yes (1)

Query :: Check this compound for solubility kinetic at or above 30 µM: CC1(C)c2cccc(C(=O)NO)c2CN1c1cnc(C(F)(F)F)cn1
Result :: yes (1)

Query :: Check this compound for solubility kinetic at or above 30 µM: CC1(C)c2cccc(C(N)=O)c2CN1c1cnc(C(F)(F)F)cn1
Result :: no (0)

Query :: Check this compound for solubility kinetic at or above 30 µM: CC1(C)c2cccc(C(=O)NO)c2CN1c1ncc(C(F)(F)F)cn1
Result :: yes (1)

Query :: Check this compound for solubility kinetic at or above 30 µM: CC1(C)c2cccc(C(=O)NO)c2CN1c1cnc(C(F)(F)F)nc1
Result :: yes (1)

Query :: Check this compound for solubility kinetic at or above 30 µM: CC1(C)c2cccc(C(=O)NO)c2CN1c1ccc(C(F)(F)F)cn1
Result :: no (0)

Query :: Check this compound for solubility kinetic at or above 30 µM: CC1(C)c2cccc(C(=O)NO)c2CN1c1nc2cc(C(F)(F)F)ccc2o1
Result :: no (0)

----------
Test system: Histone deacetylase 3 (Homo sapiens)
Sequence (O15379 whole entry): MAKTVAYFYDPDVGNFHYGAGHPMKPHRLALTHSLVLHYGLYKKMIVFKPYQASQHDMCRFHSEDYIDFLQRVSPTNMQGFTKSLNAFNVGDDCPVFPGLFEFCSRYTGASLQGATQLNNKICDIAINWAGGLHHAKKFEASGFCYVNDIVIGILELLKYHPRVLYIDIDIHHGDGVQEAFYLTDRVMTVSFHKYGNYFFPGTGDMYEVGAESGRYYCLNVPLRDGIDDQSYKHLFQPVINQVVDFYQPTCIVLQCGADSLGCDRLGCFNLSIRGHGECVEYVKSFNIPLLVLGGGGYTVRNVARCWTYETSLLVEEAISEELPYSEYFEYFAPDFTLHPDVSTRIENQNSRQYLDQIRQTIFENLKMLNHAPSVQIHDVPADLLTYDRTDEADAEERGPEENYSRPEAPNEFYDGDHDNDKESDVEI
Test details: Inhibition of full length recombinant human HDAC3 using fluorescent-labeled peptide as substrate by electrophoretic mobility shift assay
pIC50: −log10 of the molar value.
Measured attribute: pIC50

Query :: # return pIC50 for CC1(C)c2cccc(C(N)=O)c2CN1c1cnc(C(F)(F)F)cn1 , test system: Histone deacetylase 3 (Homo sapiens)
Result :: < 5.00

Query :: # return pIC50 for CC1(C)c2cccc(C(=O)NO)c2CN1c1cnc(C(F)(F)F)cn1 , test system: Histone deacetylase 3 (Homo sapiens)
Result :: < 5.00

----------
Test details: Volume of distribution at steady state in Balb/c nude mouse at 1 mg/kg, iv
Format: ADME, organism-based
Applied conditions: in vivo, read-out: Vdss
Measured attribute: Vd

Query :: For O=C(NO)c1ccc2c(c1)CN(c1nc3ccccc3[nH]1)CC2 , write its Vd.
Result :: 18 L/kg

----------
Test details: Permeability of the compound by PAMPA
Format: ADME
Applied conditions: read-out: permeability
Measured attribute: Papp (×10⁻⁶ cm/s)
// return numeric value only (unit: ×10⁻⁶ cm/s, not printed)

Query :: For CC1(C)c2cccc(C(N)=O)c2CN1c1cnc(C(F)(F)F)cn1 , write its Papp.
Result :: 17

Query :: For CC1(C)c2cccc(C(=O)NO)c2CN1c1nc2ncccc2o1 , write its Papp.
Result :: 0.7

Query :: For CC1(C)c2cccc(C(=O)NO)c2CN1c1ccc(C(F)(F)F)cn1 , write its Papp.
Result :: 12

Query :: For CC1(C)c2cccc(C(=O)NO)c2CN1c1nc2cc(C(F)(F)F)ccc2o1 , write its Papp.
Result :: 7

Query :: For CC1(C)c2cccc(C(=O)NO)c2CN1c1ccc(C(F)(F)F)nc1 , write its Papp.
Result :: 8

Query :: For CC1(C)c2cccc(C(=O)NO)c2CN1c1ncc(C(F)(F)F)cn1 , write its Papp.
Result :: 18

Query :: For CC1(C)c2cccc(C(=O)NO)c2CN1c1nc2ccc(C(F)(F)F)cc2[nH]1 , write its Papp.
Result :: 0.1

Query :: For CC1(C)c2cccc(C(=O)NO)c2CN1c1cnc(C(F)(F)F)cn1 , write its Papp.
Result :: 13
